Recorded values, source ChEMBL document CHEMBL1132553.

- assayed-target: UniProt P08254
- Sequence (P08254 whole entry): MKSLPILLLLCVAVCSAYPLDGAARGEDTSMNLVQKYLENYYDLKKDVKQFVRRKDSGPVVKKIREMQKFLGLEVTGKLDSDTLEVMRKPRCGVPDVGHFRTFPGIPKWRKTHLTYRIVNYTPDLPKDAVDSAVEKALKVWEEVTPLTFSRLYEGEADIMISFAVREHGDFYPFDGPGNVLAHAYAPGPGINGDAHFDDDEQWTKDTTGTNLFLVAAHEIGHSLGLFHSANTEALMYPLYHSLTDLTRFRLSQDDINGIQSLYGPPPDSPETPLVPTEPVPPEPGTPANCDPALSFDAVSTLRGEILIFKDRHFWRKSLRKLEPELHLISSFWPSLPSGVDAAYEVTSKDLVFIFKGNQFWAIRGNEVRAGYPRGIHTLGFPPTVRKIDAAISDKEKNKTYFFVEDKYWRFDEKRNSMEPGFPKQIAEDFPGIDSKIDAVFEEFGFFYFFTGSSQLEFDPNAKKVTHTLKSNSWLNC
- protocol-details: In vitro inhibition activity of human recombinant stromelysin (Matrix metalloprotease-3)
measured-property: IC50 (nM)
Reply with just the number (in nM).

CCCCOc1ccc(S(=O)(=O)N2C/C(=N\OCc3ccccc3)C[C@@H]2C(=O)NO)cc1: 17

Query: Item under review: C=C1C[C@H](C(=O)NO)N(S(=O)(=O)c2ccc(Oc3ccccc3)cc2)C1 . Reported IC50?
Reply: 14

Query: Item under review: CO/N=C1/C[C@H](C(=O)NO)N(S(=O)(=O)c2ccc(OC)cc2)C1 . Reported IC50?
Reply: 3

Query: Item under review: CCCCOc1ccc(S(=O)(=O)N2C/C(=N\OC)C[C@@H]2C(=O)NO)cc1 . Reported IC50?
Reply: 1

Query: Item under review: COc1ccc(S(=O)(=O)N2CC(NOC(C)(C)C)C[C@@H]2C(=O)NO)cc1 (some centres undefined) . Reported IC50?
Reply: 20

Query: Item under review: O=C(NO)[C@H]1C/C(=N/Oc2ccccc2)CN1S(=O)(=O)c1ccc(Oc2ccncc2)cc1 . Reported IC50?
Reply: 5

Query: Item under review: CONC1C[C@H](C(=O)NO)N(S(=O)(=O)c2ccc(Oc3ccccc3)cc2)C1 (some centres undefined) . Reported IC50?
Reply: 6
